Assignment: determine reported growth for the given molecules.
System: HCT-116 colon
testProtocol: NCI-60 one-dose screen, 48 h (100 = growth as untreated, 0 = no growth, -100 = all killed)
testConditions: 10 µM unless noted
Compounds without any hit were thinned out: in the full panel of roughly 83,000, 20% have a hit.
Respond numerically; units are % and should not be typed.

Requested read-out: growth. Entry: C=C(C)[C@@H]1CC[C@]2(C(=O)NCCCCCN(CCC#N)CCC#N)CC[C@]3(C)[C@H](CC[C@@H]4[C@@]5(C)CCC(=O)C(C)(C)[C@@H]5CC[C@]43C)[C@@H]12
95.5

Let us now turn to CCNC(=O)Oc1ccc(/C(=C(/C)c2ccccc2)c2ccc(OCCN3CCCCCC3)cc2)cc1
-78

Let us now turn to CN(C)CCNC(=O)c1ccc(-c2nc3ccc4[nH]ncc4c3c3c2CCC3)cc1
2.43

Let us now turn to CC(=O)Nc1cccc(Nc2nc(N[C@H](C)c3ccccc3)c3ccccc3n2)c1
31

Let us now turn to COc1ccc(C(=O)c2c(N)c(C#N)cn2-c2ccccc2OC)cc1
22.2

Let us now turn to COc1ccc(NCc2cn(-c3ccc(C(=O)O)cc3)nc2-c2cc(C(F)(F)F)cc(C(F)(F)F)c2)cc1
95.2

Let us now turn to c1cc(-c2nc3ccc4[nH]ncc4c3c3c2CCCC3)[nH]n1
25.6

Let us now turn to COC(=O)c1[nH]nc2c1C1(C(=O)c3cccc4cccc1c34)C(C#N)=C(N)O2 (centres undefined)
101

Let us now turn to COc1cc(-c2ccc3ncnc(NCc4ccccc4)c3c2)cnc1OC
78.1

Let us now turn to Nc1nc(Nc2ccccc2SSc2ccccc2Nc2nc(N)nc(-c3ccccc3)n2)nc(-c2ccccc2)n1
61.3

Let us now turn to COc1ccc(Cn2cc3c(c2-c2cc(OC)c(OC)c(OC)c2)CCc2c(CN4CCCC4)noc2-3)cc1
18

Let us now turn to Cc1ccc(-n2cc(/C=N/NC(=O)c3ccncc3)c(-c3ccc(S(C)(=O)=O)cc3)n2)cc1
61.1

Let us now turn to CCNC(=O)N1CCc2cc(OC)c(OCCc3ccc(OC)c(N)c3)cc2C1c1cc(C)c(C)cc1C (centres undefined)
17.3

Let us now turn to COc1cc(OC)c(S(N)(=O)=O)cc1C(C)=O
114

Let us now turn to COc1cc(-c2nn(C(C)(C)C)cc2-c2ccnc(NCCCNS(=O)(=O)c3ccc(F)cc3)n2)ccc1Cl
56.1

Let us now turn to C#Cc1nc(C(C)=O)cs1
95

Let us now turn to CCC1=Cc2cc(OC)ccc2OC12C=Cc1cc(OC)ccc1O2 (centres undefined)
14.2

Let us now turn to O=C(NCCN1CCCC1)c1ccc(-c2nc3ccc4[nH]ncc4c3c3c2CCCC3)cc1
1.82

Let us now turn to CCOc1ccc(NC2=C(Cl)C(=O)c3nc(C)ccc3C2=O)cc1
-83.6

Let us now turn to Cc1cc2nc(C(Cl)Cl)nc(-c3cccs3)n2n1
12.2

Let us now turn to Oc1[nH]c2ccccc2c1Nn1c(N=N/C=c2/ccc3c(c2)C=NN=3)n[nH]c1=S
104

Let us now turn to CC(C)(C)n1nnnc1C(Nc1cccc2c1OCO2)c1cc2cccc3ccc4cccc1c4c32 (centres undefined)
63

Let us now turn to C#CCOc1ccc(/C=N\Nc2nc(-c3ccc(C)cc3)cs2)cc1OC
88

Let us now turn to NC(N)=Nc1ccc(Oc2cccc(NC(N)=Nc3ccc(Br)cc3)c2)cn1
69.2

Let us now turn to CCOC(=O)c1c(N)c(C#N)cn1-c1cc(OC)c(OC)c(OC)c1
113

Let us now turn to Cc1ccc(NC(=O)c2ccc(CN3CCOCC3)c(C(F)(F)F)c2)cc1Oc1ccc(-c2[nH]nc3ncnc(N)c23)cc1
55.4

Let us now turn to CCCCCc1ccc(S(=O)(=O)Nc2cccc(-c3csc(NC(=O)CN4CCN(CCO)CC4)n3)c2)cc1
45

Let us now turn to O=C(NCc1ncc[nH]1)c1ccc(-c2nc3ccc4[nH]ncc4c3c3c2CCCC3)cc1
-4.57

Let us now turn to C=CC(=O)N1CC=C(c2cc3c(N[C@H](C)c4ccccc4)ncnc3[nH]2)CC1
86.1

Let us now turn to C=CCn1c(SCC(=O)Nc2ccc(C(=O)/C=C/c3ccc(C)cc3)cc2)nnc1-c1c[nH]c2ccccc12
-2.08

Let us now turn to O=S(=O)(NCCNc1nccc(-n2cnc3ccccc32)n1)c1ccc(C(F)(F)F)cc1
40.1

Let us now turn to COc1ccc(-c2cc(-c3ccc(Cl)cc3)c(C#N)c(=O)n2Cc2ccc(C(=O)O)cc2)cc1
77.7

Let us now turn to C=C(C)[C@@H]1CC[C@]2(COP(=O)(OCC)OCC)CC[C@]3(C)[C@H](CC[C@@H]4[C@@]5(C)CCCNC(C)(C)[C@@H]5CC[C@]43C)[C@@H]12
-68.8

Let us now turn to COc1cc(/C=N/NC(=O)c2cn(C3CC3)c3c(OC)c(N4CC5CCCNC5C4)c(F)cc3c2=O)ccc1O (centres undefined)
-59.1
